All values here come from patent US20070032533A1.

# Target or system: Human angiotensin II type 1 receptor (Homo sapiens)
# Construct: Cerep, Seattle, Wash; (contract laboratory that ran the assay)
# Sequence (P30556 1-359): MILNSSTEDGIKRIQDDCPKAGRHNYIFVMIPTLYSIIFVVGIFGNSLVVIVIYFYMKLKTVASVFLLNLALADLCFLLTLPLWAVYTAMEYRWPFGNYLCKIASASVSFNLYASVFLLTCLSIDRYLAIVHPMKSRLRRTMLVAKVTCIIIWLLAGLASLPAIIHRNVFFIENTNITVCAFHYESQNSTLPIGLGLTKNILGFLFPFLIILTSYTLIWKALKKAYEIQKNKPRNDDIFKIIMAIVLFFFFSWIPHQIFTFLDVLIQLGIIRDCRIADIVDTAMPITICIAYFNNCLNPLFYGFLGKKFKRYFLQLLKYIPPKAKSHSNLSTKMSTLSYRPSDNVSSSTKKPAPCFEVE
# Assay: Human angiotensin II type 1 receptor binding assay
# Details: percent inhibition of control specific binding at 100 nM test compound; read-out: AT1 Binding Human % Inhibition at 100 nM
Please respond with reported inhibition at 0.1 µM for every item in the list.
Returns: string containing the number followed by the unit.

The examples below pair each entry with its known result.
- Compound: "CCCCC(=O)N(CCCO[N+](=O)[O-])Cc1ccc(-c2ccccc2-c2nnn[nH]2)cc1"
  Observed measurement: "21%"
- Compound: "CC(C)[C@@H](C(=O)O)N(Cc1ccc(-c2ccccc2-c2nnn[nH]2)cc1)C(=O)CCCC(CO[N+](=O)[O-])O[N+](=O)[O-] (some centres unmarked)"
  Observed measurement: "-1%"
- Compound: "CC(C)[C@@H](C(=O)O)N(Cc1ccc(-c2ccccc2-c2nnn[nH]2)cc1)C(=O)CCC(CO[N+](=O)[O-])O[N+](=O)[O-] (some centres unmarked)"
  Observed measurement: "2%"
- Compound: "CCCCC(=O)N(Cc1ccc(-c2ccccc2-c2nnn[nH]2)cc1)[C@H](C(=O)N1CCC(CO[N+](=O)[O-])CC1)C(C)C"
  Observed measurement: "22%"

Report inhibition at 0.1 µM for CCCCC(=O)N(Cc1ccc(-c2ccccc2-c2nnn[nH]2)cc1)[C@H](C(=O)O)C(C)C [Valsartan, reference compound] 94%
